The origin of these recorded values is paper PMC12621184.

Give measured pEC50, Ca^2+ mobilization in CHO cells with human NOP and Gαqi5 for each item. Keep answers brief.
test-target: human nociceptin/orphanin FQ (N/OFQ) peptide receptor (human) (UniProt P41146)
Sequence (P41146 whole entry): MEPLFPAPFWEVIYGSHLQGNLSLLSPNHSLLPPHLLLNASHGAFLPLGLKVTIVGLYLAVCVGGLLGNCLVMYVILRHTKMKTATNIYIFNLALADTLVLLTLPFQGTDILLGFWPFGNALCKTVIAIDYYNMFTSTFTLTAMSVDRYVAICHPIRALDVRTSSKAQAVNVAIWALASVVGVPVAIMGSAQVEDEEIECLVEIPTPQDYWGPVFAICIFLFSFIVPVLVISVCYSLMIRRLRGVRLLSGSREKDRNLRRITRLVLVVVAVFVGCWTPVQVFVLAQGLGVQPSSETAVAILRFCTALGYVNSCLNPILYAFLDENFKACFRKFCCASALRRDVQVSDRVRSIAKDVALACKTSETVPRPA
Ends that are not written are not given here.

FGGFTGARKSARKLACQ-NH2 (also: homodimer: Cys16-Cys16 disulfide to second copy) [[[Cys^16]N/OFQ-NH2]2]: 8.86 pEC50
FGGFTGCRKSARKLANQ-NH2 (also: homodimer: Cys7-Cys7 disulfide to second copy) [[[Cys^7]N/OFQ-NH2]2]: 7.57 pEC50
FGGFTGARKSACKLANQ-NH2 (also: homodimer: Cys12-Cys12 disulfide to second copy) [[[Cys^12]N/OFQ-NH2]2]: 8.52 pEC50
FGGFTGARCSARKLANQ-NH2 (also: homodimer: Cys9-Cys9 disulfide to second copy) [[[Cys^9]N/OFQ-NH2]2]: 8.3 pEC50

For the 5 binders below, give their pEC50, Ca^2+ mobilization in CHO cells with human NOP and Gαqi5 values.
1. FGGFTGARKSARKCANQ-NH2 (also: homodimer: Cys14-Cys14 disulfide to second copy) [[[Cys^14]N/OFQ-NH2]2]
2. FGGFTGARKSARKLCNQ-NH2 (also: homodimer: Cys15-Cys15 disulfide to second copy) [[[Cys^15]N/OFQ-NH2]2]
3. FGGFTGARKSARCLANQ-NH2 (also: homodimer: Cys13-Cys13 disulfide to second copy) [[[Cys^13]N/OFQ-NH2]2]
4. FGGFTGARKCARKLANQ-NH2 (also: homodimer: Cys10-Cys10 disulfide to second copy) [[[Cys^10]N/OFQ-NH2]2]
5. FGGFTGACKSARKLANQ-NH2 (also: homodimer: Cys8-Cys8 disulfide to second copy) [[[Cys^8]N/OFQ-NH2]2]

["9.14 pEC50", "8.53 pEC50", "8.79 pEC50", "8.72 pEC50", "7.36 pEC50"]
